# TARGET_DESC: T1, HLA-A2/E6 (29-38) tetramer (human; HPV 16)
# T1 construct: also called E6(29-38) peptide-MHC tetramer; E6(29-38)-loaded tetramer
# TEST_NAME: tetramer flow cytometry; transfected 1:1 CD4+ and CD4+/CD8+ Jurkat-derived cells;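 also: cell mixtures transiently transfected with TCR-encoding plasmids, analysed by flow cytometry 48 h later after HLA-A*02:01 E6 tetramer staining combined with anti-CD8 antibody co-staining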
RECORDED_METRIC: % cells in E6 tet+/CD8+ quadrant
Write the numeric value and follow it with the unit.

Output % cells in E6 tet+/CD8+ quadrant of TCR 20 (codon optimized, cysteine modified version) (TCR, V domains shown) V domain 1: AQKVTQAQTEISVVEKEDVTLDCVYETRDTTYYLFWYKQPPSGELVFLIRRNSFDEQNEISGRYSWNFQKSTSSFNFTITASQVVDSAVYFCALWTGANNLFFGTGTRLTVIP V domain 2: GAVVSQHPSRVICKSGTSVKIECRSLDFQATTMFWYRQFPKQSLMLMATSNEGSKATYEQGVEKDKFLINHASLTLSTLTVTSAHPEDSSFYICSASSLARRSYEQYFGPGTRLTVTE
38.2%

Output % cells in E6 tet+/CD8+ quadrant of TCR 23 (codon optimized, cysteine modified version) (TCR, V domains shown) V domain 1: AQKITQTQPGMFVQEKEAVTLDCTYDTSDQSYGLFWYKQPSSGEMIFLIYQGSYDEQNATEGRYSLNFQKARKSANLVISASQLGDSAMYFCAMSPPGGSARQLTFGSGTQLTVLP V domain 2: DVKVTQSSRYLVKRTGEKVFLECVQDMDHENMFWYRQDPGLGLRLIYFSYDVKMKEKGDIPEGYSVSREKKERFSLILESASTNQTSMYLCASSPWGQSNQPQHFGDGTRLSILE
52.5%

Output % cells in E6 tet+/CD8+ quadrant of TCR 21 (codon optimized, cysteine modified version) (TCR, V domains shown) V domain 1: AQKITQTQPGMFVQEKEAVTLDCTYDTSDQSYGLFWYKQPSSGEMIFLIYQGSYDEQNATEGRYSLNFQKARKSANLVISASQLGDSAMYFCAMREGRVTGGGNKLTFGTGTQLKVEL V domain 2: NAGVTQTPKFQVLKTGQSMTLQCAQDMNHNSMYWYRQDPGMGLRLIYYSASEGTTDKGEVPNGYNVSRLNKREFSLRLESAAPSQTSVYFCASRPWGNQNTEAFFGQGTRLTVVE
28.8%
